Experiment: NCI Yeast Anticancer Drug Screen. Data for the mlh1 rad18 strain (AID 175)
Settings: S. cerevisiae mlh1 rad18 strain growth inhibition; at 50.0 µM; active compounds read high
The panel holds about 79,000 compounds, 15% with a hit somewhere; the sample as a whole holds those more often.
Reported endpoint: growth inhibition (%)
Use % as the unit, but write only the number.

Worked examples, 3 compounds total:
Compound | Experimental value
NC(=O)[C@H]1CC2CCC1C2 (stereo not given in full) | 6
CC(=O)N=Cc1c(O)[nH]c2ccccc12 | 0.45
O=NN(CCCl)C(=O)NC1CCC(CC2CCC(NC(=O)N(CCCl)N=O)CC2)CC1 (stereo not given) | 10.6

**Q:** Using known records, supply growth inhibition for CN1C(=S)C2=C(c3ccccc3)N(C)C(=S)C2=C1c1ccccc1
**A:** 26.1

**Q:** Query growth inhibition for CC(=O)NC1C(OC(C)C(=O)NC(C)C(=O)NC(CCC(=O)NCCCCCNc2ccc([N+](=O)[O-])c3[nH]c4ccccc4c(=O)c23)C(N)=O)C(O)C(CO)OC1(C)OCc1ccccc1 (stereo not given)
**A:** 32.9

* * *

Experiment: NCI Yeast Anticancer Drug Screen. Data for the rad50 strain (AID 155);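 note: 0% = growth of vehicle-only cultures of the same strain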
Details: S. cerevisiae rad50 strain growth inhibition; at 50.0 µM; active compounds read high
This is part of a sample that, as a whole, favours compounds with a hit. Of some 79,000 tested, about 15% had one in any assay.
Reported endpoint: growth inhibition (%)
Please respond with the number in % and leave the unit unwritten.

Recorded growth inhibition, per entry:
Compound | Experimental value
N#CCc1c(-c2ccccn2)[nH]c2ccccc12 | 9.25
CCOC(=O)c1ccnc(F)c1 | 3.8
Cc1ccc(C)c2c1CCc1cc3ccccc3nc1-2 | 26.4

**Q:** Return growth inhibition (reported value) for this compound: Nc1ccc(N=Nc2ccncc2)c2ccccc12
**A:** 31.7

**Q:** Tell us which growth inhibition value is on record for CNc1ccccc1C(=O)N/N=C/c1cccc([N+](=O)[O-])c1
**A:** -0.9

**Q:** Look up and state reported growth inhibition for COC1OC2COC(c3ccccc3)OC2C(NC(C)=O)C1OC(C)=O (configuration not stated)
**A:** 4.6

**Q:** Complete the entry with growth inhibition for O=C(NCCCCNCCCNC(=O)OCc1ccccc1)OCc1ccccc1
**A:** 14.7

**Q:** Check the records and state growth inhibition for C=C(C)C#CCN(CCO)C(C)C
**A:** -7.45

**Q:** Identify measured growth inhibition corresponding to CN(CCSCC(N)C(=O)O)CCSCC(N)C(=O)O (configuration not stated)
**A:** 5

* * *

Reported growth inhibition is given for each of the following molecules.
Assay: NCI Yeast Anticancer Drug Screen. Data for the bub3 strain (AID 167)
Settings: S. cerevisiae bub3 mutant strain, at 50.0 µM, active compounds read high
About 79,000 compounds went through this panel and 15% of them were active in at least one assay; those are over-represented in the sample as a whole.
Supply the numeric figure in %, leaving out any unit text.

Molecule | Experimental value
CC(C)(C)CC(C)(C)c1ccc2c(c1)NC(C1Nc3cc(C(C)(C)CC(C)(C)C)ccc3O1)O2 (stereo not drawn) | -2.6
C=CCNC(=O)/C=C/C | 9.75
O=C(Cl)c1cc2ccccc2c2c(=O)c3ccc4cc5ccccc5cc4c3[nH]c12 | -13.2
CC(=O)SC12CCCN1C(=O)C1(SC(C)=O)CCCN1C2=O (stereo not drawn) | 3.3
CC(C)(C)[Si](C)(C)OC1CCOC1(O)c1ccccn1 (stereo not drawn) | 35.8

**Q:** Report growth inhibition, nothing else, for this molecule: COC1(OC)CCC(OC)(OC)C(OC)(OC)C1(OC)OC
**A:** -16.2

**Q:** Fill in growth inhibition for record NC(C(=O)O)C1CCCC1 (stereo not drawn)
**A:** -92.8

* * *

Assay: NCI Yeast Anticancer Drug Screen. Data for the rad50 strain (AID 155);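 note: 0% = growth of vehicle-only cultures of the same strain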
Conditions: S. cerevisiae rad50 strain growth inhibition; at 50.0 µM; active compounds read high
Description: Growth inhibition of yeast strains with defined genetic alterations is measured as a screen for potential anti-cancer activity. Selected strains with alterations in DNA damage repair or cell cycle control were exposed to compounds and growth inhibition was measured relative to vehicle treated controls. The strain used in this assay is rad50
Compounds without any hit were thinned out: in the full panel of roughly 79,000, 15% have a hit.
Reported endpoint: growth inhibition (%)
Answer with a number only, understood to be in %.

Worked set:
Compound | Reported endpoint | Experimental value
Cc1cc2c(=O)cc(-c3ccc(C(F)(F)F)cc3)oc2c(C(=O)O)c1C | growth inhibition | -34.6
CC(NNC(=O)c1ccncc1)c1ccc(Cl)cc1Cl (centres undefined) | growth inhibition | -19.9
NC(=S)c1cc[n+]([O-])cc1 | growth inhibition | 8.65
CCCCCC(=O)Nc1ccccc1 | growth inhibition | 4.95
CC1C(O)CC23COC(=O)C2=CCCC3C1(C)CCC1COC(=O)C1 (centres undefined) | growth inhibition | -5.05
CC(C)OC(CCCl)c1ccc(Cl)cc1 (centres undefined) | growth inhibition | -7
O=S1(=O)c2ccc(cc2)N=CC=Nc2ccc1cc2 | growth inhibition | 5.25
Cc1c[nH]c2nc(C)n(-c3ccc(F)cc3)c(=N)c12 | growth inhibition | 4.1
COC(=O)c1c(C(=O)c2ccccc2)nnn1-c1cccc(C(F)(F)F)c1 | growth inhibition | -14.1
C/C(C#N)=C1/Nc2ccccc2NC1=O | growth inhibition | 0.55

**Q:** Entry CCC(C)(CC)OC(=O)c1ccc([N+](=O)[O-])cc1 needs its growth inhibition filled in; supply it.
**A:** -0.35

**Q:** Specify growth inhibition for C=CCCCC(C#N)c1ccc2c(c1)OCO2 (centres undefined) and stop.
**A:** -3.25

**Q:** Note down growth inhibition recorded for Cc1cc(N=Nc2ccc(O)c3ncccc23)c2ccccc2n1
**A:** 9.5

**Q:** Please indicate growth inhibition recorded for COc1ccc(C2=NNC(=O)OC2c2ccccc2)cc1 (centres undefined)
**A:** 29.1

**Q:** Answer with the recorded growth inhibition of Cc1cnc2[nH]c(-c3cccc4ccccc34)cc(=O)c2c1 only.
**A:** 13.2

**Q:** Given the compound COC(=O)CCCc1c[nH]c2ccccc12 , write its reported growth inhibition.
**A:** 7.2

**Q:** Entry CC(=O)CC(=O)Nc1ccc(C(=O)O)c(O)c1 needs its growth inhibition filled in; supply it.
**A:** -14.2

**Q:** Quote growth inhibition reported for O=C(O)C(O)c1cccc([N+](=O)[O-])c1 (centres undefined) please.
**A:** 11.1

* * *

Test: NCI Yeast Anticancer Drug Screen. Data for the sgs1 mgt1 strain (AID 161);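 note: 0% = growth of cultures given vehicle only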
Settings: S. cerevisiae sgs1 mgt1 strain, at 50.0 µM, active compounds read high
The panel holds about 79,000 compounds, 15% with a hit somewhere; the sample as a whole holds those more often.
// reported growth inhibition for each item listed
Numbers only here, please. The scale is %.

Solved cases (6 shown):
Molecule | Experimental value
COC1OC(CO)C(O)C(NC(=O)[C@H](Cc2ccccc2)NC(=O)OCc2ccccc2)C1O (stereo partly specified) | 0.95
COc1ccc(C2CC(=O)N(c3nccc(C)n3)C(=O)C2)cc1 | 15.9
COC(c1ccccc1)(c1ccccc1)c1cc(NS(=O)(=O)c2ccccc2)ccc1NS(=O)(=O)c1ccccc1 | 13
CC(=O)Nc1ccc2ccc3ccccc3c2c1 | 15.8
CC(C)COC(=O)N1N=NC2C3OC(CC3=O)C21 (stereo unspecified) | -8.1
COC(=O)C1C(=O)c2ccccc2C(C)C1c1ccccc1C (stereo unspecified) | 26.2

**Q:** Return value of growth inhibition for input O=S(=O)(Nc1nccs1)c1ccc(NCc2c3ccccc3nc3ccccc23)cc1 , no commentary.
**A:** 42.3

**Q:** Input CC(C)C(=O)OCCCc1ccccc1 , output reported growth inhibition.
**A:** 1.8

**Q:** Give a short answer stating reported growth inhibition for Oc1ccc(O)c(CCCCCc2cc(O)ccc2O)c1 .
**A:** 66.5

**Q:** Output growth inhibition of Cc1cc(N=Cc2cccs2)cc(Cl)c1O
**A:** 5.05

**Q:** Return growth inhibition for the following molecule: CCC/C(Cl)=N\OC(=O)Nc1ccc(OC(F)(F)F)cc1
**A:** 91

* * *

# growth inhibition listing for each entry below
Assay: NCI Yeast Anticancer Drug Screen. Data for the cln2 rad14 strain (AID 165);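 note: 0% = growth equal to vehicle treated cultures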
Conditions: S. cerevisiae cln2 rad14 strain, at 50.0 µM, active compounds read high
Procedure: Growth inhibition of yeast strains with defined genetic alterations is measured as a screen for potential anti-cancer activity. Selected strains with alterations in DNA damage repair or cell cycle control were exposed to compounds and growth inhibition was measured relative to vehicle treated controls. The strain used in this assay is cln2 rad14
Compounds without any hit were thinned out: in the full panel of roughly 79,000, 15% have a hit.
Response body: numeric value in %, unit text excluded.

**Q:** Look up and state reported growth inhibition for C[N+]1(C)CCCC(CN2c3ccccc3Sc3ccccc32)C1 (centres undefined)
**A:** -13.4

**Q:** Return the recorded growth inhibition value; entry: Nc1cccc(S(=O)(=O)O)c1
**A:** -37.1

**Q:** // Input: Nc1nc2c(ncn2C2OC(CO)C3OP(=O)(O)OC32)c(=O)[nH]1 (centres undefined) . Output its growth inhibition only.
**A:** -29.4

**Q:** Read the entry [O-][n+]1c2ccccc2[n+]([O-])c2cc(O)ccc21 and write its reported growth inhibition.
**A:** -1.3

**Q:** Give the reported growth inhibition for this compound. CN1CCN(CC2C(=O)C3CCC2C3)CC1 (centres undefined)
**A:** -7.85

**Q:** # return recorded growth inhibition for input O=C(Cc1ccccc1)c1c[nH]c2c(O)ccc(O)c12
**A:** -49.1

**Q:** Name the recorded growth inhibition of the compound listed here: COc1ccc(NCC(=O)Nn2c(-c3ccccc3)nc3ccccc3c2=O)cc1
**A:** 0.4

**Q:** Give me measured growth inhibition, please, for this compound: Cc1cccc(C)c1NC(=O)Nc1ccc(C(=O)O)cc1
**A:** -15.8

**Q:** Please give the documented growth inhibition of O=C(O)c1ccc(Cl)cc1CC(Cl)(Cl)Cl
**A:** 24.5

**Q:** Return reported growth inhibition. Input compound: CC(O)c1ccc(N=NN(C)C)cc1 (centres undefined)
**A:** -1.55

**Q:** Read the entry O=C(Nc1ncc([N+](=O)[O-])s1)c1cc(Cl)cc(Cl)c1 and write its reported growth inhibition.
**A:** 53

**Q:** Give the value of growth inhibition reported for the following: CCCCCCCCCCCCCCCC[N+](C)(C)CCN=[N+]=[N-]
**A:** 99.2

**Q:** Kindly indicate its recorded growth inhibition. Item: CCCCCCSc1nc2c([nH]1)c(=O)n(C)c(=S)n2C
**A:** 1.5

**Q:** Name the recorded growth inhibition of the compound listed here: CN(CCSCC(N)C(=O)O)CCSCC(N)C(=O)O (centres undefined)
**A:** 29.4

**Q:** Answer with the recorded growth inhibition of O=C1CC2(CCCC2)C(=O)N1c1ccc(O)c(CN2CCCCC2)c1 only.
**A:** 14.7

**Q:** Please indicate growth inhibition recorded for CN(C)C(=S)S(=O)(=O)c1ccc([N+](=O)[O-])cc1
**A:** -7.4

**Q:** Note down growth inhibition recorded for CC1SC(=S)NC1=O (centres undefined)
**A:** -2

**Q:** Give growth inhibition for O=S(=O)(/C=C/c1ccc(Cl)cc1Cl)Cc1ccccc1CS(=O)(=O)/C=C/c1ccc(Cl)cc1Cl
**A:** -20.8

**Q:** Let me know recorded growth inhibition for Cc1ccc2nc(CC(=O)c3ccccc3)c(CC(=O)c3ccccc3)nc2c1 , thanks.
**A:** 24.1

**Q:** Supply reported growth inhibition belonging to this compound: C/C(=N/NC(N)=O)c1ccccc1Cl
**A:** -20.4
